The measurements presented in this section are drawn from PubChem BioAssay (NCATS).

# Test system: FAB9
# ASSAY NOTES: qHTS profiling for inhibitors of Plasmodium falciparum proliferation (AID 504749); further: nearly all actives have a fitted effect of over 60% in size
# RUN PARAMETERS: P. falciparum in erythrocytes, SYBR Green DNA, 72 h; series mostly up to 28.7 µM
Inconclusive results are not listed. Active and inactive are the calls of the source. The call rests on the fitted dose curve; in most records, active means well fitted inhibition curve with a large enough effect; inconclusive means small, poorly fitted or top-dose-only effect; inactive means flat fitted curve, though single readings scatter.
Bench note: report the call from true (1) = active, false (0) = inactive

Worked cases, answers included:
| COMPOUND | CATEGORY LABEL |
| --- | --- |
| OC(c1ccccc1)(c1ccccc1)C1CN2CCC1CC2 (centres undefined) | false (0) |
| O=C1CN=C(c2ccccc2)c2cc(Cl)ccc2N1CC1CC1 | false (0) |
| COc1ccc2c(c1OC)C(=O)OC2C1c2cc3c(cc2CCN1C)OCO3 (centres undefined) | false (0) |
| O[C@H]1[C@H]2[C@H](O)CCCN2C[C@H]1O | false (0) |
| O=[N+]([O-])c1ccc(F)c([N+](=O)[O-])c1 | false (0) |
| CCCC(=O)OC(C(Cl)(Cl)Cl)P(=O)(OC)OC (centres undefined) | false (0) |

What outcome does the record of this test show for Oc1cccc[c]1[Hg][Cl] ?
true (1)

What outcome does the record of this test show for COc1ccc2c3c1O[C@H]1C(=O)CC[C@H]4[C@@H](C2)N(C)CC[C@]314 ?
false (0)

What outcome does the record of this test show for CCN(CC)C(=O)/C(Cl)=C(\C)OP(=O)(OC)OC ?
false (0)

* * *

# ASSAY NOTES: Quantitative high throughput screen for delayed death inhibitors of the malarial parasite plastid, 96 hour incubation (AID 488745); further: nearly all actives have a fitted effect of over 70% in size
# RUN PARAMETERS: Plasmodium falciparum growth; series mostly up to 28.7 µM
Inconclusive results are not listed. Calls of active or inactive are those of the source. The call rests on the fitted dose curve; in most records, active means well fitted inhibition curve with a large enough effect; inconclusive means small, poorly fitted or top-dose-only effect, or effect the other way; inactive means no such curve, though single readings can be large or run the other way.
Bench note: report the call from 1 (yes) for active, 0 (no) for inactive

Worked cases, answers included:
| TEST SMILES | CATEGORY LABEL |
| --- | --- |
| COc1ccc(CNC(=O)/C=C/c2ccc3[nH]cc(CCN(C)C)c3c2)cc1 | 1 (yes) |
| C#CCN[C@H](C)Cc1ccccc1 | 0 (no) |

Could you now look at the following molecule, please?
What outcome does the record of this test show for CN(N=O)c1ccc(O)c(O)c1 ?
0 (no)

* * *

# ASSAY NOTES: qHTS for differential inhibitors of proliferation of Plasmodium falciparum line GB4 (AID 1816);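 further: parasite growth measured after 72 h incubation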; further: potency means the concentration at half of the fitted maximal effect
# RUN PARAMETERS: Plasmodium falciparum GB4 proliferation inhibition; series mostly up to 28.7 µM
Inconclusive results are not listed. Active and inactive are the calls of the source. The call rests on the fitted dose curve; in most records, active means well fitted curve in the direction sought with a large enough effect; inconclusive means small, poorly fitted or top-dose-only effect, or another doubt; inactive means no such curve, though single readings can be large or run the other way.
MEASURED QUANTITY: Potency

| COMPOUND | Potency |
| --- | --- |
| OCc1cnc[nH]1 | 7.94 µM (active) |
| O=S1(=O)N(CCN2CC=C(c3c[nH]c4cc(F)ccc34)CC2)c2cccc3c2N1CCC3 | 1.41 µM (active) |
| c1ccc2c(N3CCNCC3)cccc2c1 | 12.6 µM (active) |
| c1ccc2cc(CC3=NCCN3)ccc2c1 | 10 µM (active) |
| COc1ccc2c(c1)[C@@]13CCCC[C@H]1[C@@H](C2)NCC3 | 7.08 µM (active) |
| NC(=O)COc1c(F)cc(SCCNS(=O)(=O)c2ccccc2)cc1F | inactive |
| C[N+]1(C)CCN(c2ccccc2)CC1 | inactive |
| CC(N)c1cccc(Cl)c1Cl (stereo not given) | 11.2 µM (active) |

The reported value for CC12NC(Cc3ccccc31)c1ccccc12 (stereo not given) in terms of Potency is 5.01 µM (active)

The reported value for CCn1cnc2c(Nc3cccc(Cl)c3)nc(N[C@@H]3CCCC[C@@H]3N)nc21 in terms of Potency is 3.98 µM (active)
